B1: DLC1 (parent)
chain: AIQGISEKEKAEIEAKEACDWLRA

variants of: B1; test: protein stability index of a GFP-peptide fusion (GPS, HEK-293T) (PSI 1-6); higher = more stable; settings: c terminus: a fixed tail appended;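 further: lentivirally expressed fusions sorted by FACS into six bins by GFP to DsRed ratio, PSI derived from sequencing read proportions per bin multiplied by bin number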
Endpoint: protein stability index
Reply with just the number.

Variant String	protein stability index
A1I	3.94
E12S	4.02

Could you now look at the following variant, please?
GET /values?readout=protein stability index&item= `A1C`
4.09
